# measurement_notes: qHTS profiling of the MIPE4 collection as inhibitors of Plasmodium falciparum (DD2) proliferation (AID 743345)
# condition_label: P. falciparum Dd2 in erythrocytes, SYBR Green DNA, 72 h; at 28.5 µM (top of the series) unless noted
Response field label: string, one of satisfied (parasite growth remaining, % of DMSO control (lower = more inhibition) strictly below 80%) or not satisfied.

molecule	group
C=CCc1ccc(O)c(-c2ccc(O)c(CC=C)c2)c1	satisfied
COCCCCC(=NOCCN)c1ccc(C(F)(F)F)cc1	satisfied
O=c1cc(-c2ccc(O)cc2)oc2cc(O)cc(O)c12	satisfied
CC(C)(C)C(=O)Oc1ccc2c(c1)nc(NC(=O)c1cccc([N+](=O)[O-])c1)n2CCCO	satisfied
NC(CO)(CO)CCc1ccc(Sc2cccc(OCc3ccccc3)c2)cc1Cl	satisfied
COc1ccc(Cc2ccc(NC(N)=O)cc2)cc1-c1cccc(Cl)c1	not satisfied
O=C(O)[C@H]1O[C@H](Oc2cc3oc(-c4ccccc4)cc(=O)c3c(O)c2O)[C@H](O)[C@@H](O)[C@H]1O	not satisfied
NC(=O)c1cccc2[nH]c(-c3ccc([C@H]4CCCN4)cc3F)nc12	satisfied
COc1cc2ncnc(-n3nc(-c4ccccn4)nc3N)c2cc1OC	satisfied
CN(C)Cc1ccc(-c2nc3cccc4c3n2CCNC4=O)cc1	not satisfied
O=C(N[C@@H](c1ccccc1)[C@@H]1CCCCN1)c1cccc(C(F)(F)F)c1Cl	satisfied
C[N+](C)(C)CC(=O)O	not satisfied
OC[C@H]1O[C@@H](Oc2cc(O)cc(C=Cc3ccc(O)cc3)c2)[C@H](O)[C@@H](O)[C@H]1O	not satisfied
O=C1NC(=O)C(=Cc2ccc(-c3ccc(F)cc3)o2)S1	not satisfied
Cc1nc(N)sc1-c1ccnc(Nc2ccc(N3CCOCC3)cc2)n1	satisfied
CC1(C)O[C@H]2C[C@@H]3[C@H]4CCC5=CC(=O)C=C[C@]5(C)[C@@]4(F)[C@@H](O)C[C@]3(C)[C@]2(C(=O)CO)O1	not satisfied
CC=CC[C@@H](C)C(=O)[C@H]1C(=O)N[C@@H](C(C)C)C(=O)N(C)CC(=O)N(C)[C@@H](CC(C)C)C(=O)N[C@@H](C(C)C)C(=O)N(C)[C@@H](CC(C)C)C(=O)N[C@@H](C)C(=O)N[C@H](C)C(=O)N(C)[C@@H](CC(C)C)C(=O)N(C)[C@@H](CC(C)C)C(=O)N(C)[C@@H](C(C)C)C(=O)N1C	not satisfied
O=C(Nc1ccccc1Br)N[C@@H]1CCN(c2ccc(C(F)(F)F)cn2)C1	not satisfied
O=C1C(Cl)=C(NCCN2CCOCC2)C(=O)c2ncccc21	satisfied
CN(C)Cc1cccc(N=C(c2ccccc2)c2c(O)[nH]c3cc(C(=O)N(C)C)ccc23)c1	satisfied
Cc1c(NC(=O)c2ccc(C(C)(C)C)cc2)cccc1-c1cn(C)c(=O)c(Nc2ccc(C(=O)N3CCOCC3)cc2)n1	satisfied
O=c1c(-c2ccc(O)cc2)coc2cc(OC3O[C@H](CO)[C@H](O)[C@H](O)[C@H]3O)cc(O)c12 (stereo partly specified)	not satisfied
CN(C[C@@H]1COCCO1)S(=O)(=O)Nc1ccc2ccc3ncc(-c4cnn(C)c4)cc3c(=O)c2c1	satisfied
CCC(=O)NC[C@H](Cc1ccc(OCCc2nc(-c3ccccc3)oc2C)cc1)NC(C)=CC(=O)c1ccc(C(F)(F)F)cc1	satisfied
CCCCCN(C)CCC(O)(P(=O)(O)O)P(=O)(O)O	not satisfied
Cc1cccc(Nc2nc(-c3ccncc3)cs2)c1	satisfied
CC1CCC(C(=O)N(c2cc(C#CC(C)(C)C)sc2C(=O)O)C2CCC(O)CC2)CC1 (stereo unspecified)	satisfied
